- tested-system: T1, human LAP-TGFB1 Fc fusion (human)
- T1 construct: also called human LAP-TGFβ1-Fc; human LAP-TGFβ-Fc isoform 1
- T1 sequence (chain, as listed by the source limits assumed): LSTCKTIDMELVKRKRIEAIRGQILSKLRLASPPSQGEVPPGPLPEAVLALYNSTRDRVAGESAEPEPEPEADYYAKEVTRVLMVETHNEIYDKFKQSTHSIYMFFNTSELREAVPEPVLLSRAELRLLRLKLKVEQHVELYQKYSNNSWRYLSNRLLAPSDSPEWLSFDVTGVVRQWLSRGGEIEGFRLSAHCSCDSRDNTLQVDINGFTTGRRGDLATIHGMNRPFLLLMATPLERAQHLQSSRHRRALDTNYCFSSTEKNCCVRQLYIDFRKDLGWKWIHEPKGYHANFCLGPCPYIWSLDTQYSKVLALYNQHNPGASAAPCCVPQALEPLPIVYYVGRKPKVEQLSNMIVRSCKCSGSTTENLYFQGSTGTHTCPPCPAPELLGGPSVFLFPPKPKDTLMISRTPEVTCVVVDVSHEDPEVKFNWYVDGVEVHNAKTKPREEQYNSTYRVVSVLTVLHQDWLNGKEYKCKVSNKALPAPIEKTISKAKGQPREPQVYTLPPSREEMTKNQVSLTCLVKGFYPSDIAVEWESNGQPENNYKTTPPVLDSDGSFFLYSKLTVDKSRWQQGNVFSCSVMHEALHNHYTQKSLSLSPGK
- protocol-text: SPR
Reported values of Fold change in KD from pH 7.4 to pH 6 for individual entries
Return type: number; implicit unit fold.

// 58BLH (Fab, V domains shown, also called 10BLM Fab) VH: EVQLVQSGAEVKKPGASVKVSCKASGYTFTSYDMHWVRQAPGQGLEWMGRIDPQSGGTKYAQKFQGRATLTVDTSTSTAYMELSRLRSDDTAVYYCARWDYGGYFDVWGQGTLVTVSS VL: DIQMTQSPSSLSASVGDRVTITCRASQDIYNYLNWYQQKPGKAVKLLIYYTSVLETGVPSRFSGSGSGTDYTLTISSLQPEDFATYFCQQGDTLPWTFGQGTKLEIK : Fold change in KD from pH 7.4 to pH 6 value = 1.6

// recorded Fold change in KD from pH 7.4 to pH 6 for 59BLH (Fab, V domains shown, also called 11BLM Fab) VH: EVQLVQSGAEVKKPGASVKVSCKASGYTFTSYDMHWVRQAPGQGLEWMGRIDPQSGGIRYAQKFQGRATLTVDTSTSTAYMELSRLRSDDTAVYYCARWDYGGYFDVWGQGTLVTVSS VL: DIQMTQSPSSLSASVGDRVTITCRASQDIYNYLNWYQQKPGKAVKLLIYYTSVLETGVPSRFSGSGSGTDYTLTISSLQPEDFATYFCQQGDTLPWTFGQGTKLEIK : 0.7

Record 57BLH (Fab, V domains shown, also called 09BLM Fab) VH: EVQLVQSGAEVKKPGASVKVSCKASGYTFTSYDMHWVRQAPGQGLEWMGRIDPISGGIKYAQKFQGRATLTVDTSTSTAYMELSRLRSDDTAVYYCARWDYGGYFDVWGQGTLVTVSS VL: DIQMTQSPSSLSASVGDRVTITCRASQDIFNYLNWYQQKPGKAVKLLIYYTSHLETGVPSRFSGSGSGTDYTLTISSLQPEDFATYFCQQGDTLPWTFGQGTKLEIK , field Fold change in KD from pH 7.4 to pH 6: 1.3
